System: Klebsiella pneumoniae
Experiment description: Antimicrobial activity against Klebsiella pneumoniae NCTC 13368 at 750 ug/ml after 24 hrs by cup plate method
Type: functional
Assay conditions: NCTC 13368, 24 h, read-out: IZ
Parameter measured: zone of inhibition at 750 µg/mL
Reply with the number and its unit after it.

Entry Nc1nc(=S)[nH]c2c1C(c1c(-c3ccccc3)[nH]c3ccc(Cl)cc13)C=C(c1ccccc1)O2 (configuration not stated) : reported zone of inhibition at 750 µg/mL = ?
10 mm

Entry Cc1ccc(C2=CC(c3c(-c4ccccc4)[nH]c4ccc(Cl)cc34)c3c(nc[nH]c3=O)O2)cc1 (configuration not stated) : reported zone of inhibition at 750 µg/mL = ?
9 mm

Entry O=c1[nH]cnc2c1C(c1c(-c3ccccc3)[nH]c3ccc(Cl)cc13)C=C(c1ccc(Cl)cc1)O2 (configuration not stated) : reported zone of inhibition at 750 µg/mL = ?
12 mm

Entry CN[C@@H]1[C@H](O[C@H]2[C@H](O[C@H]3[C@H](O)[C@@H](O)[C@H](N=C(N)N)[C@@H](O)[C@@H]3N=C(N)N)O[C@@H](C)[C@]2(O)C=O)O[C@@H](CO)[C@H](O)[C@H]1O : reported zone of inhibition at 750 µg/mL = ?
14 mm

Entry Cc1ccc(C2=CC(c3c(-c4ccccc4)[nH]c4ccccc34)c3c(nc[nH]c3=O)O2)cc1 (configuration not stated) : reported zone of inhibition at 750 µg/mL = ?
6 mm

Entry Nc1nc(=S)[nH]c2c1C(c1c(-c3ccccc3)[nH]c3ccc(Cl)cc13)C=C(c1ccc(Cl)cc1)O2 (configuration not stated) : reported zone of inhibition at 750 µg/mL = ?
5 mm

Entry Cc1ccc2[nH]c(-c3ccccc3)c(C3C=C(c4ccccc4)Oc4nc5oc(=O)c(C#N)c(N)c5c(N)c43)c2c1 (configuration not stated) : reported zone of inhibition at 750 µg/mL = ?
4 mm

Entry Cc1ccc2[nH]c(-c3ccccc3)c(C3C=C(c4ccc(Cl)cc4)Oc4[nH]c(=O)nc(N)c43)c2c1 (configuration not stated) : reported zone of inhibition at 750 µg/mL = ?
3 mm

Entry N#Cc1c(N)c2c(N)c3c(nc2oc1=O)OC(c1ccccc1)=CC3c1c(-c2ccccc2)[nH]c2ccccc12 (configuration not stated) : reported zone of inhibition at 750 µg/mL = ?
11 mm

Entry Cc1ccc(C2=CC(c3c(-c4ccccc4)[nH]c4ccc(Cl)cc34)c3c(N)n[nH]c3O2)cc1 (configuration not stated) : reported zone of inhibition at 750 µg/mL = ?
12 mm

Entry Cc1ccc(C2=CC(c3c(-c4ccccc4)[nH]c4ccccc34)c3c(N)nc(=O)[nH]c3O2)cc1 (configuration not stated) : reported zone of inhibition at 750 µg/mL = ?
4 mm

Entry Cc1ccc(C2=CC(c3c(-c4ccccc4)[nH]c4ccc(C)cc34)c3c(N)nc(=S)[nH]c3O2)cc1 (configuration not stated) : reported zone of inhibition at 750 µg/mL = ?
5 mm

Entry Nc1n[nH]c2c1C(c1c(-c3ccccc3)[nH]c3ccccc13)C=C(c1ccc(Cl)cc1)O2 (configuration not stated) : reported zone of inhibition at 750 µg/mL = ?
5 mm

Entry N#Cc1c(N)c2c(N)c3c(nc2oc1=O)OC(c1ccccc1)=CC3c1c(-c2ccccc2)[nH]c2ccc(Cl)cc12 (configuration not stated) : reported zone of inhibition at 750 µg/mL = ?
5 mm

Entry N#CC1=C(N)OC(c2ccc(Cl)cc2)=CC1c1c(-c2ccccc2)[nH]c2ccc(Cl)cc12 (configuration not stated) : reported zone of inhibition at 750 µg/mL = ?
10 mm

Entry Nc1nc(=O)[nH]c2c1C(c1c(-c3ccccc3)[nH]c3ccc(Cl)cc13)C=C(c1ccc(Cl)cc1)O2 (configuration not stated) : reported zone of inhibition at 750 µg/mL = ?
9 mm

Entry N#CC1=C(N)OC(c2ccc(Cl)cc2)=CC1c1c(-c2ccccc2)[nH]c2ccccc12 (configuration not stated) : reported zone of inhibition at 750 µg/mL = ?
2 mm

Entry N#Cc1c(N)c2c(N)c3c(nc2oc1=O)OC(c1ccc(Cl)cc1)=CC3c1c(-c2ccccc2)[nH]c2ccc(Cl)cc12 (configuration not stated) : reported zone of inhibition at 750 µg/mL = ?
13 mm

Entry Cc1ccc2[nH]c(-c3ccccc3)c(C3C=C(c4ccc(Cl)cc4)OC(N)=C3C#N)c2c1 (configuration not stated) : reported zone of inhibition at 750 µg/mL = ?
9 mm

Entry Cc1ccc(C2=CC(c3c(-c4ccccc4)[nH]c4ccc(C)cc34)c3c(N)nc(=O)[nH]c3O2)cc1 (configuration not stated) : reported zone of inhibition at 750 µg/mL = ?
10 mm

Entry Nc1nc(=S)[nH]c2c1C(c1c(-c3ccccc3)[nH]c3ccccc13)C=C(c1ccc(Cl)cc1)O2 (configuration not stated) : reported zone of inhibition at 750 µg/mL = ?
8 mm

Entry Cc1ccc(C2=CC(c3c(-c4ccccc4)[nH]c4ccc(Cl)cc34)c3c(N)nc(=S)[nH]c3O2)cc1 (configuration not stated) : reported zone of inhibition at 750 µg/mL = ?
10 mm

Entry Cc1ccc2[nH]c(-c3ccccc3)c(C3C=C(c4ccccc4)Oc4[nH]nc(N)c43)c2c1 (configuration not stated) : reported zone of inhibition at 750 µg/mL = ?
3 mm

Entry Cc1ccc2[nH]c(-c3ccccc3)c(C3C=C(c4ccc(Cl)cc4)Oc4[nH]c(=S)nc(N)c43)c2c1 (configuration not stated) : reported zone of inhibition at 750 µg/mL = ?
3 mm

Entry N#Cc1c(N)c2c(N)c3c(nc2oc1=O)OC(c1ccc(Cl)cc1)=CC3c1c(-c2ccccc2)[nH]c2ccccc12 (configuration not stated) : reported zone of inhibition at 750 µg/mL = ?
13 mm

Entry N#CC1=C(N)OC(c2ccccc2)=CC1c1c(-c2ccccc2)[nH]c2ccc(Cl)cc12 (configuration not stated) : reported zone of inhibition at 750 µg/mL = ?
10 mm

Entry Cc1ccc(C2=CC(c3c(-c4ccccc4)[nH]c4ccc(Cl)cc34)c3c(N)nc(=O)[nH]c3O2)cc1 (configuration not stated) : reported zone of inhibition at 750 µg/mL = ?
8 mm
